# system_under_test: Recombinant human Src (Homo sapiens, UniProt P12931)
# Construct: purchased Upstate (Lake Placid, N.Y.)
# Sequence (P12931 whole entry): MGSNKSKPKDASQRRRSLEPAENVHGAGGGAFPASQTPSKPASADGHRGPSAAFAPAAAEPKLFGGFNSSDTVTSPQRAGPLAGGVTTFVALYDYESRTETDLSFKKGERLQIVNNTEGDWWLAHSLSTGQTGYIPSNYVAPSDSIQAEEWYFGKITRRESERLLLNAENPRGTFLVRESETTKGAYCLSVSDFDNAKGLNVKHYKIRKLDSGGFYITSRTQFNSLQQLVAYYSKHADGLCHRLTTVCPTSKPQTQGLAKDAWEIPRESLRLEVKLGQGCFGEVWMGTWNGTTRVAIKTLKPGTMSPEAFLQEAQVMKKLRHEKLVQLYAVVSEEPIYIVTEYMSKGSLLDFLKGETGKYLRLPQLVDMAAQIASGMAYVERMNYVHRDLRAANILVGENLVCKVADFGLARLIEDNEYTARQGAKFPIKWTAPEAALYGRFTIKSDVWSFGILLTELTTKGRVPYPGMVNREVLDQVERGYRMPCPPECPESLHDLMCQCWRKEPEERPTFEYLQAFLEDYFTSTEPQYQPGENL
# assay_method_text: Enzymatic assay on isolated Src
# Assay type: biochemical
# recorded_conditions: read-out: Ki c-Src
recorded_metric: Ki

> print(dat)
                                   compound  recorded.metric  obs.value
1  Fc1cccc(Nc2nc(SC3CCCC3)nc3c2cnn3CC(Cl)c2ccccc2)c1 (stereo not drawn)               Ki    ~100 nM
2  Fc1ccc(CCn2ncc3c(Nc4cccc(Cl)c4)nc(SCCN4CCOCC4)nc32)cc1               Ki    ~100 nM

We now examine a further compound.
Measured Ki, ClC(Cn1ncc2c(Nc3cccc(Br)c3)nc(SCCN3CCOCC3)nc21)c1ccccc1 (stereo not drawn) : ~100 nM
